Assay procedure: Therapeutic study: hematological parameters; note: test concentration or dose not given here
Type: in vivo, Wistar strain albino rats
Measurement context: HFD continued, day 45; unit assumed
Readout: Eosinophil

> print(dat)
                                   compound  obs.value
1  CC(C)c1c(C(=O)Nc2ccccc2)c(-c2ccccc2)c(-c2ccc(F)cc2)n1CC[C@@H](O)C[C@@H](O)CC(=O)O [Statin, Atorvastatin]      1.27%

====

Assay procedure: Therapeutic study: hematological parameters; note: test concentration or dose not given here
Format: in vivo, Wistar strain albino rats
Measurement context: HFD discontinued, day 30
Readout: Platelet count

> print(dat)
                                   molecule    obs.value
1  CC(C)c1c(C(=O)Nc2ccccc2)c(-c2ccccc2)c(-c2ccc(F)cc2)n1CC[C@@H](O)C[C@@H](O)CC(=O)O [Statin, Atorvastatin]  1090 10³/µL

These entries and their values trace back to patent US20230270804A1.
